Test system: NCI-H23
methodSummary: NCI tumour cell line growth inhibition, 48 h
Active and inactive are the calls of the source. No stated cut-off is given here; in the data, active = GI50 up to about 1.1 µM and inactive = higher.
experimentalEndpoint: GI50

{"compound": "COC(=O)/C=C(/C)n1nc2ccccc2n1", "experimentalEndpoint": "GI50", "resultValue": "> 100 µM (inactive)"}
{"compound": "C=CCn1c(-c2ccc(-c3cs/c(=N\\N=O)n3CC=C)cc2)cs/c1=N\\N=O", "experimentalEndpoint": "GI50", "resultValue": "> 100 µM (inactive)"}
{"compound": "CC(=O)O[C@@]12CO[C@@H]1C[C@H](O)[C@@]1(C)C(=O)[C@H](O)C3=C(C)[C@@H](OC(=O)[C@H](O)[C@@H](NC(=O)OC(C)(C)C)c4ccccc4)C[C@@](O)([C@@H](OC(=O)c4ccccc4)[C@H]21)C3(C)C [DOCETAXEL]", "experimentalEndpoint": "GI50", "resultValue": "< 0.01 µM (active)"}
{"compound": "CCCCCCCCCC(=O)N[C@H]1CCc2cc(OC)c(OC)c(OC)c2-c2ccc(SC)c(=O)cc21", "experimentalEndpoint": "GI50", "resultValue": "0.0216 µM (active)"}
{"compound": "Cn1c(=O)c2c3ccccc3c(C(=O)c3ccccc3)n2c2ccccc21", "experimentalEndpoint": "GI50", "resultValue": "23.3 µM (inactive)"}
{"compound": "COc1cc(N(CCC#N)CCC#N)ccc1C(=N/NC(=O)c1cc(Br)ccc1O)/N=N/c1ccc(C)cc1", "experimentalEndpoint": "GI50", "resultValue": "17 µM (inactive)"}
{"compound": "O=C(Cc1ccccc1)NN1C(=O)C(Cl)C1c1cccc(O)c1 (stereo unspecified)", "experimentalEndpoint": "GI50", "resultValue": "17.5 µM (inactive)"}
{"compound": "Nc1c(C(=O)O)nnc2cc(Cl)ccc12", "experimentalEndpoint": "GI50", "resultValue": "> 100 µM (inactive)"}
{"compound": "Cc1cccc(C(C)C)c1NC(=O)CCl", "experimentalEndpoint": "GI50", "resultValue": "22.9 µM (inactive)"}
{"compound": "Cc1ccc(NC(=O)C2C3CCC(O3)C2C(=O)O)cc1 (stereo unspecified)", "experimentalEndpoint": "GI50", "resultValue": "> 100 µM (inactive)"}
{"compound": "Cc1nn(-c2ccccc2)c(-c2ccccc2[N+](=O)[O-])c1CC#N", "experimentalEndpoint": "GI50", "resultValue": "87.7 µM (inactive)"}
{"compound": "CC1=C(C2=C(C)C(=O)C(=O)c3cc(C)ccc32)c2ccc(C)cc2C(=O)C1=O", "experimentalEndpoint": "GI50", "resultValue": "0.208 µM (active)"}
{"compound": "CCOC(=O)C(C)(C)Oc1ccc2c(-c3ccccc3)cc(=O)oc2c1", "experimentalEndpoint": "GI50", "resultValue": "29 µM (inactive)"}
{"compound": "COc1c2c(cc3c1C(=O)c1c(O)cccc1C3=O)CC(O)CC2 (stereo unspecified)", "experimentalEndpoint": "GI50", "resultValue": "20.1 µM (inactive)"}
{"compound": "CC(=O)N1C(=O)C(=O)c2cc(Cl)ccc21", "experimentalEndpoint": "GI50", "resultValue": "> 100 µM (inactive)"}
{"compound": "CC(C)=CC1C(C(=O)Oc2ccccc2C(C)C)C1(C)C (stereo unspecified)", "experimentalEndpoint": "GI50", "resultValue": "23.8 µM (inactive)"}
{"compound": "Cc1ccccc1-c1nc2c(C(=O)NCCN(C)C)cccc2[nH]1", "experimentalEndpoint": "GI50", "resultValue": "57.7 µM (inactive)"}
{"compound": "O=C(O)CC(C(=O)O)c1ccccc1[N+](=O)[O-] (stereo unspecified)", "experimentalEndpoint": "GI50", "resultValue": "> 100 µM (inactive)"}
{"compound": "COc1cc(-c2nn3c(=O)n(-c4ccc(Cl)cc4)c(=O)nc3s2)cc(OC)c1OC", "experimentalEndpoint": "GI50", "resultValue": "37.6 µM (inactive)"}
{"compound": "Cc1cc(O)nc(CNC(=O)c2cccc(C(=O)NCc3cc(O)nc(C)n3)c2)n1", "experimentalEndpoint": "GI50", "resultValue": "> 100 µM (inactive)"}
{"compound": "[O-][S+](c1ccc(O)cc1)c1ccc(O)cc1", "experimentalEndpoint": "GI50", "resultValue": "> 100 µM (inactive)"}
{"compound": "COC(=O)C1=C(C(=O)OC)N(c2ccc(OC)cc2[N+](=O)[O-])C(c2ccc(C)cc2)=CC1c1ccc(OC)cc1OC (stereo unspecified)", "experimentalEndpoint": "GI50", "resultValue": "22.4 µM (inactive)"}
{"compound": "C=C1CC2(CC(c3ccccc3Cl)OC(c3ccccc3Cl)C2)OC1=O (stereo unspecified)", "experimentalEndpoint": "GI50", "resultValue": "3.83 µM (inactive)"}
{"compound": "Cc1ccc(S(=O)(=O)[C@@H](Cl)[C@H]2N=C(Cl)NN=C2c2ccccc2)cc1", "experimentalEndpoint": "GI50", "resultValue": "20.6 µM (inactive)"}
{"compound": "CN1CCN(CCn2c3c4ccccc4ccc3c3oc(=O)c4ccccc4c32)CC1", "experimentalEndpoint": "GI50", "resultValue": "5.83 µM (inactive)"}
{"compound": "c1ccc(COc2ccc3[nH]c4c5c6ccccc6nc-5c[nH]c4c3c2)cc1", "experimentalEndpoint": "GI50", "resultValue": "18.3 µM (inactive)"}
{"compound": "C=CC(Br)(CBr)CCC(Br)C(C)(C)Br (stereo unspecified)", "experimentalEndpoint": "GI50", "resultValue": "15.7 µM (inactive)"}
{"compound": "C=C(C)[C@@H](C(=O)OC)N1C(=O)c2ccccc2C1=O", "experimentalEndpoint": "GI50", "resultValue": "> 100 µM (inactive)"}
{"compound": "NNC(=O)N/N=C1\\CNC(=O)C(=O)C1c1nc2ccccc2s1 (stereo unspecified)", "experimentalEndpoint": "GI50", "resultValue": "> 100 µM (inactive)"}
{"compound": "COC(=O)[C@H]1ON2O[C@@H](O[C@H]3CCCC[C@@H]3C(C)(C)c3ccccc3)C[C@@H]3CC[C@H]1[C@@]32C", "experimentalEndpoint": "GI50", "resultValue": "> 100 µM (inactive)"}
{"compound": "CC(=C/c1ccccc1)/C=C1/NC(=S)N(/C=C2\\C(=O)Oc3ccccc3C2=O)C1=O", "experimentalEndpoint": "GI50", "resultValue": "41.6 µM (inactive)"}
{"compound": "CC(C)(C)OC(=O)NC(Cc1ccccc1)NC(=O)NC(=O)OCc1ccccc1 (stereo unspecified)", "experimentalEndpoint": "GI50", "resultValue": "87.9 µM (inactive)"}
{"compound": "COc1ccc(-c2cc(=O)c3c(O)cccc3o2)c(OC)c1OC", "experimentalEndpoint": "GI50", "resultValue": "> 100 µM (inactive)"}
{"compound": "CCOC(=O)C(C(=O)OCC)C1C=CCC2c3ccccc3COCC21 (stereo unspecified)", "experimentalEndpoint": "GI50", "resultValue": "43.6 µM (inactive)"}
{"compound": "COc1cc(CSc2ccc(O)cc2)cc(OC)c1OC", "experimentalEndpoint": "GI50", "resultValue": "28.6 µM (inactive)"}
{"compound": "COc1cc([N+](=O)[O-])ccc1NC(=O)c1cccc([N+](=O)[O-])c1O", "experimentalEndpoint": "GI50", "resultValue": "20.4 µM (inactive)"}
{"compound": "COc1cc(Cc2ccc3c(c2C#N)N(C)c2ccccc2S3)cc(OC)c1OC", "experimentalEndpoint": "GI50", "resultValue": "4.14 µM (inactive)"}
{"compound": "O=C(NC(Nc1ccc(F)c(Cl)c1)(C(F)(F)F)C(F)(F)F)C(C(F)(F)F)C(F)(F)F", "experimentalEndpoint": "GI50", "resultValue": "23.3 µM (inactive)"}
{"compound": "CC(C)(/N=N/C(C)(C)C(=N)N)C(=N)N", "experimentalEndpoint": "GI50", "resultValue": "> 100 µM (inactive)"}
{"compound": "CCOC(=O)C(C)(C)Oc1ccc2c(-c3ccc(Cl)cc3)c(-c3ccc(Cl)cc3)c(=O)oc2c1", "experimentalEndpoint": "GI50", "resultValue": "> 100 µM (inactive)"}
{"compound": "CCOC(=O)C1CCC(=O)N1C(=O)c1ccc(Cl)cc1 (stereo unspecified)", "experimentalEndpoint": "GI50", "resultValue": "> 100 µM (inactive)"}

Entry source: ChEMBL document CHEMBL1201862
